Hello, the source for this data is PubChem BioAssay (NCI), in case you need it.

This listing pairs compounds with measured TGI.
Tested on: MALME-3M melanoma
Run description: NCI tumour cell line growth inhibition, 48 h

[
  {
    "Compound": "COc1ccccc1N=Nc1c(-c2ccccc2)nn(C(=O)CC(=O)Nc2ccccc2Cl)c1-c1ccccc1",
    "TGI": "> 100 µM"
  },
  {
    "Compound": "CCOC(=O)c1cc(NC(=O)c2cc(NC(=O)c3cc(NC(=O)c4c(-c5ccccc5)noc4C)cn3C)cn2C)cn1C",
    "TGI": "> 100 µM"
  },
  {
    "Compound": "CCN(C1=CC(=O)NC2CCCCN12)c1ccccc1 (stereo not drawn)",
    "TGI": "> 100 µM"
  },
  {
    "Compound": "O=C1c2ccccc2C(=O)N1C/C=N/NS(=O)(=O)c1ccc2ccccc2c1",
    "TGI": "> 100 µM"
  },
  {
    "Compound": "CC(C)(O)c1coc(S(=O)(=O)/N=C(\\O)Nc2c3c(cc4c2CCC4)CCC3)c1",
    "TGI": "> 100 µM"
  },
  {
    "Compound": "Cn1cc(C2=C(Sc3ccccc3)C(=O)NC2=O)c2ccccc21",
    "TGI": "> 20.2 µM"
  },
  {
    "Compound": "CC(=O)Oc1ccc2c(c1OC(C)=O)CCC1C2=CC[C@]2(C)C(=O)CCC12 (stereo partly drawn)",
    "TGI": "28.6 µM"
  },
  {
    "Compound": "COc1cc2c(cc1OC)C(=O)/C(=C/c1ccccc1)CC2",
    "TGI": "> 100 µM"
  }
]
